Provenance of the data: PubChem BioAssay (NCI)

- Test system: MDA-MB-435
- assayOverview: NCI tumour cell line growth inhibition, 48 h
Please respond with reported TGI for every item in the list.
Answers are plain numbers, in µM.

O=C1C(Cl)=C(NCCF)C(=O)c2ncccc21
0.408

Go through the items and report each one's TGI.
1. NC(CSC(c1ccccc1)(c1ccccc1)c1ccc(F)cc1)C(=O)O (stereo not given)
2. O=C1NC(=Nc2ccccc2)C(=Nc2ccccc2)N1c1ccccc1

0.654
29.7

###

- System: MCF7 breast
- assayOverview: NCI tumour cell line growth inhibition, 48 h
recordedEndpoint: TGI (µM)
Give bare numbers, in µM.

Recorded TGI, per entry:
CCC(=O)Nc1ccc(NCC(=O)Nc2ccc(OC)cc2)cc1
33.3
C=CC[C@]1(C2=NC(C)(C)CO2)c2ccccc2-c2ccccc2[C@H]1C(C)=O
24.8
NCCOc1ncccc1/C=C1\c2ccccc2-c2ccc([N+](=O)[O-])cc21
0.409
COc1ccc2nc3cccc([N+](=O)[O-])c3c(NCCNCCN(C)C)c2c1
0.221
CN(C)CCCCCNc1c2ccccc2nc2cccc([N+](=O)[O-])c12
0.000689
COc1ccc2[nH]c(C(=O)OCc3ccc4cccc(O)c4n3)cc2c1
2.79
CCN(CC)c1ccc2nc3ccc(N=Nc4ccc(O)cc4)cc3[n+](-c3ccccc3)c2c1
5.11
Cc1cc(NS(=O)(=O)c2ccc(Nc3c4ccccc4nc4c(C(=O)NCCO)cccc34)cc2)no1
45.5

Field: TGI. Fill in for each record below.
1. Nc1ccccc1C(=O)NC(=O)Nc1ccc(Oc2ncc(Br)cn2)c(Cl)c1
2. O=C1C(Cl)=C(NCCF)C(=O)c2ncccc21

[30.9, 3.54]
